Assay: yeast display, Sf9 membrane polyspecificity reagent, FACS + sequencing; frameworks hold sequencing errors
parameter: polyreactivity (PSR sort gate)

Solved cases (5 shown):
[[record]]
macromolecule_sequence = "QVQLVESGGGLVQAGGSLRLSCAASGRIISHNAMGWYRQAPGKERELVAVISNGGSTYYADSVKGRFTISRDNAKNTVYLQMNSLKPEDTAVYYCAARYTPQSGFYYRGQGTQVTVSS"
test_result = "low polyreactivity"

[[record]]
macromolecule_sequence = "QVQLVESGGGLVQAGGSLRLSCAASGSIFYYYTMGWYRQAPGKERELVAAITWSGSTYYADSVKGRFTISRDNAKNTVYLQMNSLKPEDTAVYYCNADALIAAYKYFPYTYRFNYWGQGTQVTVSS"
test_result = "low polyreactivity"

[[record]]
macromolecule_sequence = "QVQLVESGGGLVQAGGSHRLSSAASGSILADNAMGWYRQAPGKERELVAAISLRGGRTYYADSVKGGFTISRDNAKNTVYLQMNSLKPEDTAVYYCAAVGSFHIVDYWGEGTQVTVSS"
test_result = "high polyreactivity"

[[record]]
macromolecule_sequence = "QVQLEESGGGLVQAGGSLRLSCAASGLIFGKYAMGWYRTAPGKERELVAAITSSGGGTYYADSVKGRFTISRDNAKNTVYLQMNSLKPEDTAVYYCSTGPDPKYDYWGQGTQVTVSS"
test_result = "high polyreactivity"

[[record]]
macromolecule_sequence = "QVQLVESGGGLVQAGGSLRLSCAASGFTFRYYVMGWYRQAPGKEGELVAAISWSGGTTYYADSVKGRFTISRDNAKNTVYLQMNSLKPEDTAVYYCAADVYLNRRQRMYFWGQGSQVTVSS"
test_result = "high polyreactivity"


[in] Quick one: polyreactivity (PSR sort gate) for QVQLVESGGGLVQAGGSLRLSCAASGSTFSYYGMGSYRTAPGKERELVDAIDYSGDSTYDADSVKGRFTISRDNAKNTVYLQMNSLKPEDTAVYYCAADDYPWNRYAYWGQGTQVPVSS ?
[out] low polyreactivity

[in] Quick one: polyreactivity (PSR sort gate) for QVQLVESGGGLVQAGGSLRLSCAASGRTYTYAMGWYRQAPGKERELVAGISRRGGNTYYADSVKGRFTISRDNAKNTVYLQMNSLKPEDTAVYYCAAVSFSASSYTYEYWGQGTQVTVSS ?
[out] high polyreactivity

[in] Quick one: polyreactivity (PSR sort gate) for QVQLVESGGGLVQAGGSLRLSCAASGRIFDRNAMGWYRQARGKARELVARIDPGDDTNYADSVKGRFTISRDNAKNKVYLQMNSLQPEDTAVYYCATDPDYVLYRTAYYEYDYWGQGTQVTVSS ?
[out] low polyreactivity

[in] Quick one: polyreactivity (PSR sort gate) for QVQLVESGGGLVQAGGSLRLSCAASGNIFYPYAMGWYRQAPGKERELVAAISWSDGSTYYADSVKGRFTISRDNAKNTVYLQMNILKPEDTAVYYCAAEAYISNYYGRDYWGQGTQVTVSS ?
[out] high polyreactivity

[in] Quick one: polyreactivity (PSR sort gate) for QVQLVESGGGLVQAGGSLRLSCAASGSIFPRNAMGWSRQAPGKERELVARINSGGTTKYADSVKGRFTISRDNAKNTVYLQMNSLKPEDTAVYYCNADTYILDPLRKSYGYDYWGQGTQVTVSS ?
[out] low polyreactivity

[in] Quick one: polyreactivity (PSR sort gate) for QVQLVESGGGLVQAGGSLRLSCAASGLIFEPYVMGWYRQAPGKERELVASITWSAGSTYYADSVKGRFTISRDNAKNTVYLQMNSLKPDDTAVYYCAARHGYGWGFSGVPAQGYEYWGQGTQVTVSS ?
[out] low polyreactivity

====

Experiment: yeast display, Sf9 membrane polyspecificity reagent, FACS + sequencing; frameworks hold sequencing errors
parameter: polyreactivity (PSR sort gate)

[[record]]
macromolecule_sequence = "QVQLVESGGGLVQAGGSLRLSCAASGRIFQRYAMGWYSQAPGKERELVAAISSRGGRTFYADSVKGRFTISRDNAKNTVYLQMNSLKPEDTAAYYCAATATVGCVSFDYWGQGTQVTVSS"
parameter = "polyreactivity (PSR sort gate)"
test_result = "high polyreactivity"

[[record]]
macromolecule_sequence = "QVQLVESGGCIVQAGGSLRLSSPASGRNFTRYGKGWDRQAPRKERELVAAISKSTGNTYYADCVKGRFTISRDFAKNTVYLQMNSLKPEDTAVYYCAASKNKRPPYDYWGQGTQVNVSS"
parameter = "polyreactivity (PSR sort gate)"
test_result = "high polyreactivity"


====

Experiment: yeast display, Sf9 membrane polyspecificity reagent, FACS + sequencing; frameworks hold sequencing errors
parameter: polyreactivity (PSR sort gate)

Solved cases (5 shown):
[[record]]
macromolecule_sequence = "QVQLVESGGGLVQAGGSLRLICAASGSTQSPYAMGWYRQAPGKERDFVAAISTSGVSTYYADSVKGRFTISRDNAKNTVDLQMNSLKPVDTAVYYCATRYYIYGSTLKLYDYWGQGTQVTVSS"
parameter = "polyreactivity (PSR sort gate)"
test_result = "high polyreactivity"

[[record]]
macromolecule_sequence = "QVQLVESGGGLVQAGGSLRLSCAASGITFGSYAMGWYRQAPGKERELVAAISRSGGSTYYADSVKGRFTISRDNAKNTVYLQMNSLKPEDTAVYYCAVRYVYYREGDYWGQGTQVSVSS"
parameter = "polyreactivity (PSR sort gate)"
test_result = "high polyreactivity"

[[record]]
macromolecule_sequence = "QVQLVESGGGLVQAGGSLRLSCAASGRIFRFYDMGWYRQAPVKESELVASISSTGGRTYYADSVKGRFTISRDNAKNTVYVQMNSLKPEDTAVYYCNATRGQYVGRYYYWGQGTQVTVSW"
parameter = "polyreactivity (PSR sort gate)"
test_result = "high polyreactivity"

[[record]]
macromolecule_sequence = "QVQLQERGGGQVQAGGSLRLSCAASGTIFLYAFMGWYRQAPGKERELVAAIDVGTTTNYADSVKGRFTISRDNAKNTVYLQMNSLKPEDTAVYYCAANLGYLDDLGYWGQGTQVTVSS"
parameter = "polyreactivity (PSR sort gate)"
test_result = "low polyreactivity"

[[record]]
macromolecule_sequence = "QVQLVESGGGLVQAGGSLRLSCAASGFTFYYYTMGWYRQAPGKEREFVAAITSSGGRTNYADSVKGRFTISRDNAKNIVYLQMNRLKPEDTAVYYCAATYIRYDHYRPRGGYWGQGTQVTVSS"
parameter = "polyreactivity (PSR sort gate)"
test_result = "high polyreactivity"


[in] Quick one: polyreactivity (PSR sort gate) for QVQLVESGGGLVQAGGSLRLSCAASGLIFYRYVMGWYRQAPGKEREFVAAISSGGSTYYADSVKGLFTISRDNAKNTVYLQMNSLKPEDTAVYYCNTLSQVFASRAPKFDYWGQGTQVTVSS ?
[out] high polyreactivity

[in] Quick one: polyreactivity (PSR sort gate) for QVHLVESGGGLVQAGGSLRLSCAASGFIFGSNAMGWSRQAPGKERELVAAITYSGASTYYADSVKGRFTISRDNAKNTVYLQMNSLKPEDTAVYYCNAVYSSVVDGSEGFDYWGQGTQVTVSS ?
[out] low polyreactivity

[in] Quick one: polyreactivity (PSR sort gate) for QVQLVESGGGLVQAGGSLRLSCAASGFTFVRYAMGWYRQAPGKERELVAVISRSGGSTNYADSVKGRFTISRDNAKNTVYLQMNSLKAEDTAVYYCNVVVKGAWDYYPYDYWGQGTQVTVSS ?
[out] high polyreactivity

[in] Quick one: polyreactivity (PSR sort gate) for QVQLVESGGGLVQAGGSLRLSCAASGFIFYDYAMGWYRQGPGKERELGAAISSTAFGTYYADSVKGRFTISRDKAKNTVYLQMNILKPEDTAVYYCAAAVSPHSEGFGEYNDWGQGTQVTVSS ?
[out] low polyreactivity

[in] Quick one: polyreactivity (PSR sort gate) for QVLLVESGGGLVQAGGSLRLSCAASGRIFNAYAMGWYRQAPGKERELVAAISRSGGRTYYADSVKGRFTISRDNAKITVYLQMNSLKPEDTAVYYCAADAWSEQYPKYYYWGQGTQVTVSS ?
[out] low polyreactivity

[in] Quick one: polyreactivity (PSR sort gate) for QVQLVESGGGLVQAGGSLRLSWAASGSTFGFYAMGWYRQAPGKERELVASISSGGTTYHADSVKGRFTISRDNAKNTVYLQMNSLKPEDTAVYYSAAFYVATSKLGYWGQGSQVTVSS ?
[out] low polyreactivity

====

Assay: yeast display, Sf9 membrane polyspecificity reagent, FACS + sequencing; frameworks hold sequencing errors
parameter: polyreactivity (PSR sort gate)

Solved cases (8 shown):
[[record]]
macromolecule_sequence = "QVQLVESGGGLVQAGGTLRLICAASGSIFGYYTMGWYRQASGKERELVAAITSGGSTNYADSVKGRFTISRDNAKNTVYLQMNSLKPEDTAVYYCATVSYYPWRYDYWGQGTQGTVSS"
test_result = "low polyreactivity"

[[record]]
macromolecule_sequence = "QVQLVESGGGLVQAGGSLRLSCAASGSIFFAYVMGWYRQAPGKERELDAVITYSGGSTYYADSVKGRFTISRDNAKNTVYLQMNSLKPEDTAVYDCAADETSALDDYWGQGTQVTVSS"
test_result = "low polyreactivity"

[[record]]
macromolecule_sequence = "QVQLVESGGGLVQAGGSLRLSCAASGRIFVYYVMGWYRQAPGKERELVASITFRGSRTYYADSVKGRFTISRDNAKNTVYLQMNSLKPEDTAVDYCNADVWASGSRGEGYWGQGTQVTVSS"
test_result = "low polyreactivity"

[[record]]
macromolecule_sequence = "QVQLVESGGGLVQAGGSLRLSCAASGSTFRPYSMGWYRQAPGKEREFVAAINYRGGSTNYADSVKGRFTISRDNAKNTVYLQMNSLKPEDTAVYYCAATYYLRLRRPYWQGFNYWGQGTQVTVSS"
test_result = "high polyreactivity"

[[record]]
macromolecule_sequence = "QVQLVESGGGLVQAGGSLRLSCAASGSIFQVYAMGWYRQAPGNESEFVADIDWSGESTYYADSVKGRFTISRDNAKNTVYLQMNSLKPEDTAVYYCAAEDGYVTWDRDYEYWGQGTQVTVSS"
test_result = "low polyreactivity"

[[record]]
macromolecule_sequence = "QVQLVESGGGLVQAGGSLRLSCAASGSTFNRYAMGWYRQAPGKERELVAAITSTGGTNYADSVKGRFTISLDNAKNTVYLQMYSLKPEDTAVYYCAKRWLRGRSNYWGHGTQVTVSS"
test_result = "high polyreactivity"

[[record]]
macromolecule_sequence = "QVQLVESGGCLVQAGGSLRLSCAASGYIFQWYDMGWYRPAPGKERELVAAISVTTGSTYYADSVKGRFTISRDNAQKTVYLQMNSLKPEDTAVYYCAAVSWYRHDMYYWGHGTQVTVSS"
test_result = "low polyreactivity"

[[record]]
macromolecule_sequence = "QVQLVESGGGLVQAGGSLRLSCAASGRTFPVYAMGWYRQAPGKEREFVAAISYRTGSTYYADSVKGRFTISRDHAKNTVYLQMNSLKPEDTAVYYCAARVSWYYTFYSWGQGTQVTVSS"
test_result = "high polyreactivity"


[in] Quick one: polyreactivity (PSR sort gate) for QVQLVESVGGLDQAGGSLRLSCAASGSTFSLYTIGWYRQAPGKERELVASISRGGGSTYYADSVKGRFTISRDNAKNTVYLQMNSLKPEDTAVYYCASGTLYFYSHNPEDDFDYWGQGTQVTVSS ?
[out] high polyreactivity

[in] Quick one: polyreactivity (PSR sort gate) for QVQLVESGGGLVQAGGSLRLSCAASGYIFGWYTMGWYRQAPGKERELVAAISGGGRTYYADSVKGRFTISRDNAKNTVYLQMNSLKPEDTAVYYCAARVAQVAYPDGYWGQGTQVTVSS ?
[out] high polyreactivity

[in] Quick one: polyreactivity (PSR sort gate) for QVQLVESGGGLVQAGGSLRLSCAASGITFYRYAMGWYRQAPGKERELVAAISWSGGSTYYADSVKGRFTFSRDNAKNTVYLQMNSLKPEDTAVYYCNKYIRYPFKRYGYWGQGTQVTLSS ?
[out] high polyreactivity

Taken from the nanobody polyreactivity screen of Harvey et al. (2022).
